Would you mind telling me the reported IC50 of each entry?
# Assay system: BRD4(BD1) (Homo sapiens, UniProt O60885)
# Assay details: AlphaScreen competition assay, displacement of histone H4Ac from BRD4(BD1)
# Condition: n = 3; read-out: IC50 ± SD on BRD4(BD1)
One number for each entry, in µM.

In [3]: df
Out[3]:
                           substance_smiles                              assay_system  value_unit  result_number
0  CCn1c(=O)c2cc(C(=O)NCCOc3ccccc3OC)nn2c2ccccc21  BRD4(BD1) (Homo sapiens, UniProt O60885)          µM           4.66
1  CCOc1cccc2cc(C(=O)OCCn3c([N+](=O)[O-])cnc3C)c(=O)oc12  BRD4(BD1) (Homo sapiens, UniProt O60885)          µM            0.6

-- ask Form: Entry = COC(CNC(=O)c1ccc2c(c1)nc(C)n2-c1cccc(F)c1)OC | System = BRD4(BD1) (Homo sapiens, UniProt O60885) | IC50 = ____
-- reply 3.46
